Test system: NCI-H647
Assay: relative viability (nuclei count vs DMSO), 5 days (fraction); higher = more cells survive
Details: first compound 0.01581 µM
readout_name: relative viability

- compound: "CC1(C)CCC(c2ccc(Cl)cc2)=C(CN2CCN(c3ccc(C(=O)NS(=O)(=O)c4ccc(N[C@H](CCN5CCOCC5)CSc5ccccc5)c(S(=O)(=O)C(F)(F)F)c4)cc3)CC2)C1 [Navitoclax] + COc1cccc2cc(-c3nc([C@H]4CC[C@H](C(=O)O)CC4)n4ncnc(N)c34)[nH]c12 [OSI-027] (partner 0.5 µM)"
  result_value: 0.738
- compound: "CC1(C)CCC(c2ccc(Cl)cc2)=C(CN2CCN(c3ccc(C(=O)NS(=O)(=O)c4ccc(N[C@H](CCN5CCOCC5)CSc5ccccc5)c(S(=O)(=O)C(F)(F)F)c4)cc3)CC2)C1 [Navitoclax] + CCNC(=O)c1noc(-c2cc(C(C)C)c(O)cc2O)c1-c1ccc(CN2CCOCC2)cc1 [Luminespib] (partner 0.01 µM)"
  result_value: 0.215

----------
Tested on: NCI-H2405
Assay: relative viability (nuclei count vs DMSO), 5 days (fraction); higher = more cells survive
Conditions: first compound 0.03162 µM
readout_name: relative viability

- compound: "NC(=O)Nc1cc(-c2cccc(F)c2)sc1C(=O)N[C@H]1CCCNC1 [AZD7762] + O=C(c1cc(Cc2n[nH]c(=O)c3ccccc23)ccc1F)N1CCN(C(=O)C2CC2)CC1 [Olaparib] (partner 8 µM)"
  readout_name: "relative viability"
  result_value: 0.911
- compound: "NC(=O)Nc1cc(-c2cccc(F)c2)sc1C(=O)N[C@H]1CCCNC1 [AZD7762] + C[C@]1(O)C[C@@H](c2nc(-c3ccc4ccc(-c5ccccc5)nc4c3)c3c(N)nccn32)C1 [Linsitinib] (partner 1 µM)"
  readout_name: "relative viability"
  result_value: 0.929
- compound: "NC(=O)Nc1cc(-c2cccc(F)c2)sc1C(=O)N[C@H]1CCCNC1 [AZD7762] + CC(=O)Nc1cccc(-n2c(=O)n(C3CC3)c(=O)c3c(Nc4ccc(I)cc4F)n(C)c(=O)c(C)c32)c1 [Trametinib] (partner 0.02 µM)"
  readout_name: "relative viability"
  result_value: 0.57
- compound: "NC(=O)Nc1cc(-c2cccc(F)c2)sc1C(=O)N[C@H]1CCCNC1 [AZD7762] + C[C@@H](Oc1cc(-c2cnn(C3CCNCC3)c2)cnc1N)c1c(Cl)ccc(F)c1Cl [Crizotinib] (partner 1 µM)"
  readout_name: "relative viability"
  result_value: 0.802
- compound: "NC(=O)Nc1cc(-c2cccc(F)c2)sc1C(=O)N[C@H]1CCCNC1 [AZD7762] + CC(C)C[C@H](NC(=O)[C@H](Cc1ccccc1)NC(=O)c1cnccn1)B(O)O [Bortezomib] (partner 0.002 µM)"
  readout_name: "relative viability"
  result_value: 0.982
- compound: "NC(=O)Nc1cc(-c2cccc(F)c2)sc1C(=O)N[C@H]1CCCNC1 [AZD7762] + Cc1cc(Nc2cc(N3CCN(C)CC3)nc(Sc3ccc(NC(=O)C4CC4)cc3)n2)n[nH]1 [Tozasertib] (partner 0.1 µM)"
  readout_name: "relative viability"
  result_value: 0.832
- compound: "NC(=O)Nc1cc(-c2cccc(F)c2)sc1C(=O)N[C@H]1CCCNC1 [AZD7762] + CC(=O)c1c(C)c2cnc(Nc3ccc(N4CCNCC4)cn3)nc2n(C2CCCC2)c1=O [Palbociclib] (partner 0.5 µM)"
  readout_name: "relative viability"
  result_value: 0.538
- compound: "NC(=O)Nc1cc(-c2cccc(F)c2)sc1C(=O)N[C@H]1CCCNC1 [AZD7762] + CS(=O)(=O)N1CCN(Cc2cc3nc(-c4cccc5[nH]ncc45)nc(N4CCOCC4)c3s2)CC1 [Pictilisib] (partner 1 µM)"
  readout_name: "relative viability"
  result_value: 0.559

----------
Reported relative viability is given for each of the following molecules.
System: ChaGo-K-1
Assay: relative viability (nuclei count vs DMSO), 5 days (fraction); higher = more cells survive
Details: first compound 0.1581 µM

- molecule: "CC1(C)CCC(c2ccc(Cl)cc2)=C(CN2CCN(c3ccc(C(=O)NS(=O)(=O)c4ccc(N[C@H](CCN5CCOCC5)CSc5ccccc5)c(S(=O)(=O)C(F)(F)F)c4)cc3)CC2)C1 [Navitoclax] + CCNC(=O)c1noc(-c2cc(C(C)C)c(O)cc2O)c1-c1ccc(CN2CCOCC2)cc1 [Luminespib] (partner 0.01 µM)"
  relative viability: 0.578
- molecule: "CC1(C)CCC(c2ccc(Cl)cc2)=C(CN2CCN(c3ccc(C(=O)NS(=O)(=O)c4ccc(N[C@H](CCN5CCOCC5)CSc5ccccc5)c(S(=O)(=O)C(F)(F)F)c4)cc3)CC2)C1 [Navitoclax] + N=C(N)NC(=N)NCCc1ccccc1 [Phenformin] (partner 250 µM)"
  relative viability: 0.48
- molecule: "CC1(C)CCC(c2ccc(Cl)cc2)=C(CN2CCN(c3ccc(C(=O)NS(=O)(=O)c4ccc(N[C@H](CCN5CCOCC5)CSc5ccccc5)c(S(=O)(=O)C(F)(F)F)c4)cc3)CC2)C1 [Navitoclax] + CC(=O)Nc1cccc(-n2c(=O)n(C3CC3)c(=O)c3c(Nc4ccc(I)cc4F)n(C)c(=O)c(C)c32)c1 [Trametinib] (partner 0.02 µM)"
  relative viability: 0.904
- molecule: "CC1(C)CCC(c2ccc(Cl)cc2)=C(CN2CCN(c3ccc(C(=O)NS(=O)(=O)c4ccc(N[C@H](CCN5CCOCC5)CSc5ccccc5)c(S(=O)(=O)C(F)(F)F)c4)cc3)CC2)C1 [Navitoclax] + Nc1ncn([C@H]2C[C@H](O)[C@@H](CO)O2)c(=O)n1 [Decitabine] (partner 2 µM)"
  relative viability: 0.498

----------
System: NCI-H1975
Assay: relative viability (nuclei count vs DMSO), 5 days (fraction); higher = more cells survive
Details: first compound 0.01 µM
Note to self: relative viability under 0.3 means t, ties and anything higher get f.

- compound: "NC(=O)Nc1cc(-c2cccc(F)c2)sc1C(=O)N[C@H]1CCCNC1 [AZD7762] + CCNC(=O)c1noc(-c2cc(C(C)C)c(O)cc2O)c1-c1ccc(CN2CCOCC2)cc1 [Luminespib] (partner 0.01 µM)"
  assigned_label: "t"
- compound: "NC(=O)Nc1cc(-c2cccc(F)c2)sc1C(=O)N[C@H]1CCCNC1 [AZD7762] + N=C(N)NC(=N)NCCc1ccccc1 [Phenformin] (partner 250 µM)"
  assigned_label: "f"
- compound: "NC(=O)Nc1cc(-c2cccc(F)c2)sc1C(=O)N[C@H]1CCCNC1 [AZD7762] + Nc1nc2[nH]cc(CCc3ccc(C(=O)N[C@@H](CCC(=O)O)C(=O)O)cc3)c2c(=O)[nH]1 [Pemetrexed] (partner 0.2 µM)"
  assigned_label: "f"
- compound: "NC(=O)Nc1cc(-c2cccc(F)c2)sc1C(=O)N[C@H]1CCCNC1 [AZD7762] + CS(=O)(=O)N1CCN(Cc2cc3nc(-c4cccc5[nH]ncc45)nc(N4CCOCC4)c3s2)CC1 [Pictilisib] (partner 1 µM)"
  assigned_label: "f"
- compound: "NC(=O)Nc1cc(-c2cccc(F)c2)sc1C(=O)N[C@H]1CCCNC1 [AZD7762] + CC1(C)CCC(c2ccc(Cl)cc2)=C(CN2CCN(c3ccc(C(=O)NS(=O)(=O)c4ccc(N[C@H](CCN5CCOCC5)CSc5ccccc5)c(S(=O)(=O)C(F)(F)F)c4)cc3)CC2)C1 [Navitoclax] (partner 0.5 µM)"
  assigned_label: "f"

----------
System: ABC-1
Assay: relative viability (nuclei count vs DMSO), 5 days (fraction); higher = more cells survive
Details: first compound 0.03162 µM

- compound: "NC(=O)Nc1cc(-c2cccc(F)c2)sc1C(=O)N[C@H]1CCCNC1 [AZD7762] + CCNC(=O)c1noc(-c2cc(C(C)C)c(O)cc2O)c1-c1ccc(CN2CCOCC2)cc1 [Luminespib] (partner 0.01 µM)"
  relative viability: 0.787
- compound: "NC(=O)Nc1cc(-c2cccc(F)c2)sc1C(=O)N[C@H]1CCCNC1 [AZD7762] + CC(C)C[C@H](NC(=O)[C@H](Cc1ccccc1)NC(=O)c1cnccn1)B(O)O [Bortezomib] (partner 0.002 µM)"
  relative viability: 0.389
- compound: "NC(=O)Nc1cc(-c2cccc(F)c2)sc1C(=O)N[C@H]1CCCNC1 [AZD7762] + Cc1nc(NC(=O)N2CCC[C@H]2C(N)=O)sc1-c1ccnc(C(C)(C)C(F)(F)F)c1 [Alpelisib] (partner 2 µM)"
  relative viability: 0.831
- compound: "NC(=O)Nc1cc(-c2cccc(F)c2)sc1C(=O)N[C@H]1CCCNC1 [AZD7762] + Nc1ncn([C@H]2C[C@H](O)[C@@H](CO)O2)c(=O)n1 [Decitabine] (partner 2 µM)"
  relative viability: 1.11
- compound: "NC(=O)Nc1cc(-c2cccc(F)c2)sc1C(=O)N[C@H]1CCCNC1 [AZD7762] + O=C(CCCCCCC(=O)Nc1ccccc1)NO [Vorinostat] (partner 1 µM)"
  relative viability: 1.47
